- System: HeLa S3
- TEST_NAME: Induction of apoptosis in human HeLaS3 cells assessed as appearance of fragmented nuclei at 5 times IC50 after 48 hrs by Hoechst staining
- Type: functional, cell-based
The source made the active and inactive calls. No cut-off for these calls is given here.
Respond with a class label; see y = active, n = inactive

c1ccc(CNc2cc3c(cn2)[nH]c2ccccc23)cc1    y
c1ccc2c(c1)[nH]c1cnc(NCC3CCCCC3)cc12    n
C[n+]1cc2[nH]c3ccccc3c2cc1NCc1ccccc1    y

Okay, now this compound:
Request: What outcome does the record of this test show for Oc1cccc(CNc2cc3c(cn2)[nH]c2ccccc23)c1 ?
Response: y

FYI, the data here is from ChEMBL document CHEMBL1667761.
